This section presents binders with their documented rh-Angio/rhEndo (ratio of colonies recovered) values.
Target: rhAngiostatin (human, UniProt P00747 98-357, limits assumed)
Sequence (P00747 98-357 limits assumed): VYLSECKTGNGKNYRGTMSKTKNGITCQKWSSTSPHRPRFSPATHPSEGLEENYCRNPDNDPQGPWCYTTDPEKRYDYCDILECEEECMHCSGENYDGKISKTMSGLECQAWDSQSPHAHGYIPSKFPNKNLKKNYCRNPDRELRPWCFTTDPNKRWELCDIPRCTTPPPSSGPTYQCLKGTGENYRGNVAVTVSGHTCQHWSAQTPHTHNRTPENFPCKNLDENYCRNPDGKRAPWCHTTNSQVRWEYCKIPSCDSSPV
Assay: phage binding to coated wells; colonies from rhAngiostatin wells divided by those from rh-Endostatin wells
No end group written: not given here.
Write down the numeric answer in ratio and omit the unit.

binder: CWSLEVAKC (not fully specified (bridges); cysteine pairing not given here; also: displayed on phage) [phage displaying CWSLEVAKC]
measured: 486

Now take the following binder into account.
Exam item: Find the recorded rh-Angio/rhEndo (ratio of colonies recovered) belonging to CRWSSMIWC (not fully specified (bridges); cysteine pairing not given here; also: displayed on phage) [phage displaying CRWSSMIWC] and report it.
Marked response: 7
